- system-name: T1, biotinylated native human ApoC3 (human, UniProt P02656 21-99, biotinylated (site not stated))
- T1 construct: also called biotinylated human ApoC3
- T1 sequence (P02656 21-99): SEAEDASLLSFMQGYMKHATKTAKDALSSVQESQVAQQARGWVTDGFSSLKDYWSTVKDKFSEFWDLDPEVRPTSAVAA
- test-description: SPR, IgG1 over biotinylated ApoC3 on SA chip
KD pH5.5/KD pH7.4 listing for selected binders.
Please respond with just the number, no unit label.

{"binder": "mAb18 (antibody, IgG1, V domains shown, Produced as full length IgG1 (kappa) in ExpiCHO-S cells; also called humanized anti-ApoC3 antibody mAb18) VH: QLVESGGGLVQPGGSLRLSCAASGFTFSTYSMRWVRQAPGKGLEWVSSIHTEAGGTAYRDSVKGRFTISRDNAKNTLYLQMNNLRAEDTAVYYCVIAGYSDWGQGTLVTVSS VL: DIVMTQSPLSLPVTPGEPASISCKTSQGLVHSGGKTYFYWFLQKPGQSPQQLIYQVSNRASGVPDRFTGSGSGTDFTLKISRVEAEDAGVYYCAHGTYYPHTFGQGTRLEIK", "KD pH5.5/KD pH7.4": 6.48}

Reported KD pH5.5/KD pH7.4 for mAb19 (antibody, IgG1, V domains shown, Produced as full length IgG1 (kappa) in ExpiCHO-S cells; also called humanized anti-ApoC3 antibody mAb19) VH: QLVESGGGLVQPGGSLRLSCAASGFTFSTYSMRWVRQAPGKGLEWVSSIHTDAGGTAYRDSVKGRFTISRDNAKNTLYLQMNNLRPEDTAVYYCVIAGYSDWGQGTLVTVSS VL: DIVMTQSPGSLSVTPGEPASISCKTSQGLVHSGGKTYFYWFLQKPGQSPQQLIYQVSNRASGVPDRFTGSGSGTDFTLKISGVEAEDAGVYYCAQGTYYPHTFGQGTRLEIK was 9.21
